Tested on: RH1^RC1 T. brucei;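 also: resistant clone selected by stepwise exposure to the aziridinyl benzoquinone prodrug in culture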
Assay: microbe, parasite or virus in culture
Type: cell-based
measurementName: ratio (fold difference in EC50 between RH1^RC1 and wild type)

compound: CC1CCC(NC(=O)N(CCCl)N=O)CC1 (stereo not shown)
resultValue: 1.1
//
compound: CC1=C(N2CC2)C(=O)C(CO)=C(N2CC2)C1=O
resultValue: 3.3
//
compound: O=NN(CCCl)C(=O)NC1CCCCC1
resultValue: 0.9
//
compound: N[C@@H](Cc1ccc(N(CCCl)CCCl)cc1)C(=O)O
resultValue: 1.2
//
compound: C1CN1c1nc(N2CC2)nc(N2CC2)n1
resultValue: 1.1
//
compound: NCCCC(N)(C(=O)O)C(F)F (stereo not shown) [DFMO, difluoromethylornithine, reference compound]
resultValue: 1.3
//
compound: O=C1C(N2CC2)=C(N2CC2)C(=O)C(N2CC2)=C1N1CC1
resultValue: 1.2

====

Tested on: bloodstream form T. brucei
Test: Growth inhibition of wild type / control bloodstream form T. brucei (resazurin)
Format: cell-based
Details: Trypanosoma brucei, Table 3, BSF T. brucei wild type; read-out: EC50 Wild type

compound: O=C1C(N2CC2)=C(N2CC2)C(=O)C(N2CC2)=C1N1CC1 [ABQ22]
targetDesc: bloodstream form T. brucei
unitsSymbol: nM
EC50: 197
--
compound: CC1=C(N2CC2)C(=O)C(CO)=C(N2CC2)C1=O [RH1]
targetDesc: bloodstream form T. brucei
unitsSymbol: nM
EC50: 25
--
compound: CC1CS(=O)(=O)CCN1/N=C/c1ccc([N+](=O)[O-])o1 (centres unmarked) [Nifurtimox, reference compound]
targetDesc: bloodstream form T. brucei
unitsSymbol: nM
EC50: 2700
--
compound: O=NN(CCCl)C(=O)NC1CCCCC1 [Lomustine]
targetDesc: bloodstream form T. brucei
unitsSymbol: nM
EC50: 16600
--
compound: NCCCC(N)(C(=O)O)C(F)F (centres unmarked) [DFMO, difluoromethylornithine, reference compound]
targetDesc: bloodstream form T. brucei
unitsSymbol: nM
EC50: 16800
